- target_or_test_system: KRAS G12C (Homo sapiens, UniProt P01116+P62937, G12C)
- Sequence (P01116 1-169 isoform P01116-2 G12C): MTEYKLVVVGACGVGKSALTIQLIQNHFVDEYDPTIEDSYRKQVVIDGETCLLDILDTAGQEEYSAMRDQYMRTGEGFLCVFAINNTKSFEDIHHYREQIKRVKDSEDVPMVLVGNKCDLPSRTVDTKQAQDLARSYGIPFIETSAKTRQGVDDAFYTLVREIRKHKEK
- Sequence (P62937 whole entry): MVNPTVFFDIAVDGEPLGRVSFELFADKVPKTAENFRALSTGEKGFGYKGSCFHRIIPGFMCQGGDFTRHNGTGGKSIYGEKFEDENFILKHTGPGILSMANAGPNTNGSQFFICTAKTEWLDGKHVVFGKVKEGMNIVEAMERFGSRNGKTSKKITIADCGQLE
- protocol: Disruption of BRAF RBD interaction with Ras (FRET / MOA assay, with Cyclophilin A)
- Format: biochemical
- condition_info: read-out: KRAS G12C FRET data, IC50
pIC50: −log10 of the molar value.
measured_quantity: pIC50

For orientation, consider the following solved cases.
CCn1c(-c2cnccc2COC)c2c3cc(ccc31)-c1cc(O)cc(c1)C[C@H](NC(=O)[C@H](C(C)C)N(C)C(=O)[C@@H]1CCCO1)C(=O)N1CCC[C@H](N1)C(=O)OCC(C)(C)C2 | 6.00 to 7.00
CCn1c(-c2cccnc2[C@H](C)OC)c2c3cc(ccc31)-c1csc(n1)C[C@H](NC(=O)[C@H](C(C)C)N(C)C(=O)N1CC[C@]13CCCNC3)C(=O)N1CCC[C@H](N1)C(=O)OCC(C)(C)C2 | 6.00 to 7.00
CCn1c(-c2cccnc2[C@H](C)OC)c2c3cc(ccc31)-c1cc(O)cc(c1)C[C@H](NC(=O)[C@H](C(C)C)N(C)C(=O)C1(C#N)CC1)C(=O)N1CCC[C@H](N1)C(=O)OCC(C)(C)C2 (racemic) | 7.00 to 8.00

Note: attention shifts to another entry.
[ask] # input compound: CCn1c(-c2cccnc2[C@H](C)OC)c2c3cc(ccc31)-c1csc(n1)C[C@H](NC(=O)[C@H](C(C)C)N(C)C(=O)N1[C@H](C)CN(C)C[C@H]1C)C(=O)N1CCC[C@H](N1)C(=O)OCC(C)(C)C2 ; wanted: its pIC50
[reply] 6.00 to 7.00

---

Hi there, I'd appreciate the recorded IC50 for every entry that follows.
- target_or_test_system: KRAS G12D (Homo sapiens, UniProt P01116+P62937, G12D)
- Sequence (P01116 1-169 isoform P01116-2 G12D limits assumed): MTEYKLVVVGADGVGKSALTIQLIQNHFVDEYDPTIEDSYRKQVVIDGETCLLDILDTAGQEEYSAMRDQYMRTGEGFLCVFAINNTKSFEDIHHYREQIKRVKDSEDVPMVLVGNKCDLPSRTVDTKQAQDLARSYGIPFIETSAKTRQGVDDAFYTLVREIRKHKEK
- Sequence (P62937 whole entry): as the sequence (P62937 whole entry) above
- protocol: Disruption of BRAF RBD interaction with Ras (FRET / MOA assay, with Cyclophilin A)
- Assay type: biochemical
- condition_info: read-out: KRAS G12D FRET data, IC50

CCn1c(-c2cc(N3CCN(C)CC3)cnc2[C@H](C)OC)c2c3cc(ccc31)-c1csc(n1)C[C@H](NC(C)=O)C(=O)N1CCC[C@H](N1)C(=O)OCC(C)(C)C2 (atropisomer, axis not shown) [Example A340] | > 10000 nM
C=CC(=O)N1CCO[C@H]2CN(C(=O)N(C)[C@H](C(=O)N[C@H]3Cc4cccc(c4)-c4ccc5c(c4)c(c(-c4cccnc4[C@H](C)OC)n5CC)CC(C)(C)COC(=O)C4CCCN(N4)C3=O)C(C)C)C[C@H]21 (some centres unmarked) | 1000 to 10000 nM
CCn1c(-c2cccnc2[C@H](C)OC)c2c3cc(ccc31)-c1cccc(c1)C[C@H](NC(=O)[C@H](C(C)C)N(C)C(=O)[C@H]1CCN(CCO)C1)C(=O)N1CCC[C@H](N1)C(=O)OCC(C)(C)C2 | 1000 to 10000 nM
CCn1c(-c2cnccc2COC)c2c3cc(ccc31)-c1cc(O)cc(c1)C[C@H](NC(=O)C1CCCC1C(F)F)C(=O)N1CCC[C@H](N1)C(=O)OCC(C)(C)C2 (some centres unmarked) | > 10000 nM
C=CC(=O)N1CCO[C@H]2CCN(C(=O)N(C)[C@H](C(=O)N[C@H]3Cc4nc(cs4)-c4ccc5c(c4)c(c(-c4cccnc4[C@H](C)OC)n5CC)CC(C)(C)COC(=O)C4CCCN(N4)C3=O)C(C)C)C[C@@H]21 (some centres unmarked) | 100 to 1000 nM
C=CC(=O)N1CC[C@H](C(=O)N(C)[C@H](C(=O)N[C@H]2Cc3cc(O)cc(c3)-c3ccc4c(c3)c(c(-c3cc(F)cnc3COC)n4CC)CC(C)(C)COC(=O)[C@@H]3CCCN(N3)C2=O)C(C)C)C1 | 1000 to 10000 nM

Record IC50 per entry; entries follow.
1. CCn1c(-c2cccnc2[C@H](C)OC)c2c3cc(ccc31)-c1cc(O)cc(c1)C[C@H](NC(=O)[C@H](C(C)C)N(C)C(=O)[C@H]1CC[C@@H](CN(C)C)O1)C(=O)N1CCC[C@H](N1)C(=O)OCC(C)(C)C2
2. C=CC(=O)N1CC[C@]2(CCN([C@H](C(=O)N[C@H]3Cc4cc(O)cc(c4)-c4ccc5c(c4)c(c(-c4ccccc4CCOC)n5CC)CC(C)(C)COC(=O)[C@@H]4CCCN(N4)C3=O)C(C)C)C2=O)C1
3. CCn1c(-c2cccnc2[C@H](C)OC)c2c3cc(ccc31)-c1cccc(c1)C[C@H](NC(=O)[C@H](C(C)C)N(C)C(=O)[C@H]1CCN(C(=O)CN)C1)C(=O)N1CCC[C@H](N1)C(=O)OCC(C)(C)C2

[reply]
["10 to 100 nM", "> 10000 nM", "1000 to 10000 nM"]

Values from patent US20230233569A1
